system: choroidal neovascularization; assay: Choroidal neovascularization in rats (laser photocoagulation, FFA); type: in vivo; settings: day 28 after administration, total light spot number was 69, 0.05 μM in the vitreous chamber once a day for 1 week, BN rats
Peptide text beside a SMILES is read from it. * marks the point of attachment. X72 = O=C1C=CC(=O)N1c1ccccc1CCCCCCCCCCC(=O)*; X66 = O=C1C=CC(=O)N1c1cccc(CCCCCCCC(=O)*)c1; X52 = O=C1C=CC(=O)N1c1ccccc1CCCCCCCC(=O)*; X63 = O=C1C=CC(=O)N1c1ccccc1CCCCCCC(=O)*; X61 = O=C1C=CC(=O)N1c1cccc(CCCC(=O)*)c1; X75 = O=C1C=CC(=O)N1c1cccc(CC(=O)*)c1
Below, each entry is listed alongside its reported CNV Incidence (%).
Express your answer in %, writing the number without its unit.

As a guide, the following entries are already answered.
input: Quick check: CNV Incidence (%) of C[C@H](NC(=O)CNC(=O)[C@H](CCCNC(=N)N)NC(=O)Cc1cccc(N2C(=O)C=CC2=O)c1)C(=O)N[C@@H](CC(=O)O)C(=O)N[C@@H](CCCNC(=N)N)C(=O)N[C@@H](C)C(=O)NCC(=O)NCC(=O)NCC(=O)NCC(=O)N[C@@H](CCCNC(=N)N)C(=O)NCC(=O)N[C@@H](CC(=O)O)C(=O)O [X25] (X75-RGADRAGGGGRGD-OH) ?
output: 44.93

input: Value lookup for CNV Incidence (%); key = C[C@H](NC(=O)CNC(=O)[C@H](CCCNC(=N)N)NC(=O)CCCCCCc1ccccc1N1C(=O)C=CC1=O)C(=O)N[C@@H](CC(=O)O)C(=O)N[C@@H](CCCNC(=N)N)C(=O)N[C@@H](C)C(=O)NCC(=O)NCC(=O)NCC(=O)NCC(=O)N[C@@H](CCCNC(=N)N)C(=O)NCC(=O)N[C@@H](CC(=O)O)C(=O)O [X18] (X63-RGADRAGGGGRGD-OH)
output: 44.93

input: // returns reported CNV Incidence (%) for input C[C@H](NC(=O)CNC(=O)[C@H](CCCNC(=N)N)NC(=O)CCCCCCCc1ccccc1N1C(=O)C=CC1=O)C(=O)N[C@@H](CC(=O)O)C(=O)N[C@@H](CCCNC(=N)N)C(=O)N[C@@H](C)C(=O)NCC(=O)NCC(=O)NCC(=O)NCC(=O)N[C@@H](CCCNC(=N)N)C(=O)NCC(=O)N[C@@H](CC(=O)O)C(=O)O [X19] (X52-RGADRAGGGGRGD-OH)
output: 44.93

input: Bench note: what CNV Incidence (%) did C[C@H](NC(=O)CNC(=O)[C@H](CCCNC(=N)N)NC(=O)CCCc1cccc(N2C(=O)C=CC2=O)c1)C(=O)N[C@@H](CC(=O)O)C(=O)N[C@@H](CCCNC(=N)N)C(=O)N[C@@H](C)C(=O)NCC(=O)NCC(=O)NCC(=O)NCC(=O)N[C@@H](CCCNC(=N)N)C(=O)NCC(=O)N[C@@H](CC(=O)O)C(=O)O [X27] (X61-RGADRAGGGGRGD-OH) show?
output: 36.23

input: Reported CNV Incidence (%) for C[C@H](NC(=O)CNC(=O)[C@H](CCCNC(=N)N)NC(=O)CCCCCCCCCCc1ccccc1N1C(=O)C=CC1=O)C(=O)N[C@@H](CC(=O)O)C(=O)N[C@@H](CCCNC(=N)N)C(=O)N[C@@H](C)C(=O)NCC(=O)NCC(=O)NCC(=O)NCC(=O)N[C@@H](CCCNC(=N)N)C(=O)NCC(=O)N[C@@H](CC(=O)O)C(=O)O [X22] (X72-RGADRAGGGGRGD-OH) : what is it?
output: 37.68

Proceeding to the next molecule to report its CNV Incidence (%).
input: Name the reported CNV Incidence (%) value associated with the molecule C[C@H](NC(=O)CNC(=O)[C@H](CCCNC(=N)N)NC(=O)CCCCCCCc1cccc(N2C(=O)C=CC2=O)c1)C(=O)N[C@@H](CC(=O)O)C(=O)N[C@@H](CCCNC(=N)N)C(=O)N[C@@H](C)C(=O)NCC(=O)NCC(=O)NCC(=O)NCC(=O)N[C@@H](CCCNC(=N)N)C(=O)NCC(=O)N[C@@H](CC(=O)O)C(=O)O [X31] (X66-RGADRAGGGGRGD-OH)
output: 44.93
